STUDY TARGET: purified recombinant mouse ENPP1 (Mus musculus)
Sequence (P06802 whole entry): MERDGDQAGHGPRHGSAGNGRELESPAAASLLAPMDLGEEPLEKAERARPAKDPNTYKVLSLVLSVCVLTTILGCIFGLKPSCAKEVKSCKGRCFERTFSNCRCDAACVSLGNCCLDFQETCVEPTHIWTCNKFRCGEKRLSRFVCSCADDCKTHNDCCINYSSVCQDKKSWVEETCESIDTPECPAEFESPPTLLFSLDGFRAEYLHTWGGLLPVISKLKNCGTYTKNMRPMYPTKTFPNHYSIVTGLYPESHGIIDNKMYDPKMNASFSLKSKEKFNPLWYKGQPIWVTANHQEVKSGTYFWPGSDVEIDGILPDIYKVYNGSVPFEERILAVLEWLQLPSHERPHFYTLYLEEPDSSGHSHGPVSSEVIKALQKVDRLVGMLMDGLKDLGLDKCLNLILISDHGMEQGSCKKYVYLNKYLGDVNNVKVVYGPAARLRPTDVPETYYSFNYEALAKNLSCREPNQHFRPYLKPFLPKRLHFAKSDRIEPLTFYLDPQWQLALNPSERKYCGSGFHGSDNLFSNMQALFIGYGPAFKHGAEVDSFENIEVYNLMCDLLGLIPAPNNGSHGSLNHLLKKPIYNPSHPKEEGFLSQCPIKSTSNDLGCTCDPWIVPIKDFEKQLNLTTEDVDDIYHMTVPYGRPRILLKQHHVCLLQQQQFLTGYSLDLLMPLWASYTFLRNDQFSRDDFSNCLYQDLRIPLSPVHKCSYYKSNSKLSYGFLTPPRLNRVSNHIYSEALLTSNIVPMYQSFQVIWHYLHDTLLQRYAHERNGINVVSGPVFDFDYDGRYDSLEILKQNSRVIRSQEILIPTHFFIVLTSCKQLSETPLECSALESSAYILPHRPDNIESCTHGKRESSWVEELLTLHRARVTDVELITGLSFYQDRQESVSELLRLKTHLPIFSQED
ASSAY REMARKS: ENPP1 activity assay using TMP-pNP as a substrate
Format: biochemical
TEST CONTEXT: TMP-pNP 2 μM, mouse ENPP1 0.5 nM, pH 7.5, room temperature
Experimental: Selected compounds of Table 1, Table 2 and other derivatives were prepared and assessed in an ENPP1 activity assay using thymidine monophosphate paranitrophenol (TMP-pNP) as a substrate. […] Reaction progress was monitored by measuring absorbance at 400 nm of paranitrophenolate produced by the reaction for 20 minutes.
PROPERTY NAME: IC50

Cc1cnc(C)n1-c1cc(N2CCN(CCP(=O)(O)O)CC2)ncn1 [Compound 103] :: 0.05 to 0.5 µM
O=P(O)(O)CCC1CCN(c2ncnc3cc(Cl)ccc23)CC1 [Compound 84] :: 0.05 to 0.5 µM
COc1cc(OC)c2ncnc(N3CCC(CCP(=O)(O)O)CC3)c2c1 [Compound 7] :: 0.05 to 0.5 µM
COc1ccc(OC)c2c(N3CCC(CCP(=O)(O)O)CC3)ncnc12 [Compound 16] :: 0.5 to 5 µM
COc1ccc2c(N3CCC(CCP(=O)(O)O)CC3)nc(C)nc2c1 [Compound 12] :: 0.005 to 0.05 µM

Answer for every listed entry: what is its IC50? The entries follow.
1. COc1ccc2c(N3CCC(CCP(=O)(O)O)CC3)ncnc2c1OC [Compound 25]
2. COc1cccc2c(N3CCC(CCP(O)(O)=S)CC3)ncnc12 [Compound 92]

0.005 to 0.05 µM
< 0.005 µM
